# method-notes: in vivo
# details: rabbit, topical or ocular, 35 uL of 5 mg/ml solution per eye per dose, K173 Concentrations (ng/mL) in Rabbit Aqueous Humor OS Sample
Bridge positions count the residues as written; N and C are the ends. Square brackets hold non-standard residues; d marks the D form. Triazole bridges read from a SMILES are 1,4-linked. Peptide text beside a SMILES is read from it. * marks the point of attachment. Benzoyl(3,5-(OH)2) = O=C(c1cc(O)cc(O)c1)*; Lys(N3) = [N-]=[N+]=NCCCC[C@H](N)C(=O)O; dPhe(4-F) = N[C@H](Cc1ccc(F)cc1)C(=O)O; Nle = CCCC[C@H](N)C(=O)O; Pra = C#CC[C@H](N)C(=O)O
value-type: level at 24 h (ng/mL)

• CCCC[C@H](NC(=O)c1cc(O)cc(O)c1)C(=O)N[C@H]1CCCCn2cc(nn2)C[C@@H](C(N)=O)NC(=O)[C@H](Cc2c[nH]c3ccccc23)NC(=O)[C@H](CCCNC(=N)N)NC(=O)[C@@H](Cc2ccc(F)cc2)NC(=O)[C@H](Cc2c[nH]cn2)NC1=O [Peptide K173] ({Benzoyl(3,5-(OH)2)}-[Nle][Lys(N3)]H[dPhe(4-F)]RW[Pra]-NH2; triazole 2-7) = 3.94

Origin of values: patent US20260151434A1
